target: human MAL (human) (UniProt P58753); experiment: P8 phage display panning on plate-immobilised MAL, after round 4, NGS
ENDPOINT_LABEL: NGS count (count)

See these solved cases before continuing.
NQWRNALTAAANLSGW :: 848
SEFIQKIILWMNPKIV :: 4460
YFLHFLLFSRPETEYI :: 17200

P: WFLTAFRMAMDQVADT
Q: LFFWESLKQLLRSDGR
Exercise: Kindly identify the item with the lower NGS count figure among these two: P and Q Select an item and report its label.
Key: P
(P: 353 count, Q: 22600 count)

I: KFIWDIINAISSQIRV
II: FTLAVHVRNWLVGGFI
Exercise: Given the listed records, identify the one among I and II with higher NGS count. Indicate your choice by writing its label.
Key: II
